Target: Bombyx mori EcR (VP16 fusion, CVBE switch construct) (Bombyx mori)
Assay: Z3 Assay (HEK-293 cells with CVBE and 6XEcRE LacZ, β-galactosidase reporter)
Details: maximum fold induction at any concentration relative to that of GS-E ligand; HEK-293 Z3 cells
ATTRIBUTE_MEASURED: Z3 assay Rel Max FI
Note: the reply should be a number with no unit written.

Cc1c(C(=O)NN(C(=O)c2ccc(F)c(F)c2)C(C)(C)C)ccc2c1CCCO2 | 1.869
CCc1c(OC)cccc1C(=O)NN(C(=O)c1cc(C)cc(C)c1)C(C)(C)C=NCCO | 0.66
COc1cc(C(=O)N(NC(=O)c2ccc3c(c2C)OCCO3)C(C)(C)C)cc(OC)c1O | 0.916
COc1ccc(C(=O)NN(C(=O)c2cc(Cl)cc(Cl)c2)C(C)(C)C)cc1 | 0.777
COc1cc(C(=O)N(NC(=O)c2ccc3c(c2Cl)COCO3)C(C)(C)C)cc(OC)c1C | 0.759
Cc1cc(C)cc(C(=O)N(NC(=O)c2ccc3c(c2F)COCO3)C(C)(C)C)c1 | 0.804

The compound listed as `CCc1c(C(=O)NN(C(=O)c2ccc(C)cc2)C(C)(C)C)ccc2c1OCOC2` has a reported Z3 assay Rel Max FI of 0.703

So for `CCc1c(OC)cccc1C(=O)NN(C(=O)c1cc(C)cc(C)c1)C(C)(C)C#N` , the logged Z3 assay Rel Max FI turned out to be 0.943

---

# reported EC50; entries follow
Molecular target: Bombyx mori EcR (VP16 fusion, CVBE switch construct) (Bombyx mori, UniProt P49881)
Sequence (P49881 86-606): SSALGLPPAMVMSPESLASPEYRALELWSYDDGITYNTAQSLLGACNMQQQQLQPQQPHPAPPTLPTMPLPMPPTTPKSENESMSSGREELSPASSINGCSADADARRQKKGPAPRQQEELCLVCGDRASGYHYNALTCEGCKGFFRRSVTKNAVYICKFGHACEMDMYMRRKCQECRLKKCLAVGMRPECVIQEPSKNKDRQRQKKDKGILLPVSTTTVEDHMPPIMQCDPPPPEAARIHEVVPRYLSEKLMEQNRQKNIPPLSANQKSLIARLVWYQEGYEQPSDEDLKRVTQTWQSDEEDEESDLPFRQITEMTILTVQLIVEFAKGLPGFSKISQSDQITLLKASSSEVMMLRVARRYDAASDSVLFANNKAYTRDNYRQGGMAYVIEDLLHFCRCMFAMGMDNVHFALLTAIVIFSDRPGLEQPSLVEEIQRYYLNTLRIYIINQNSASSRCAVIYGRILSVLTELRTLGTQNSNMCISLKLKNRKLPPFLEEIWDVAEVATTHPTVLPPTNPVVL
Sequence (P19793 whole entry partner, the tested form may be a part): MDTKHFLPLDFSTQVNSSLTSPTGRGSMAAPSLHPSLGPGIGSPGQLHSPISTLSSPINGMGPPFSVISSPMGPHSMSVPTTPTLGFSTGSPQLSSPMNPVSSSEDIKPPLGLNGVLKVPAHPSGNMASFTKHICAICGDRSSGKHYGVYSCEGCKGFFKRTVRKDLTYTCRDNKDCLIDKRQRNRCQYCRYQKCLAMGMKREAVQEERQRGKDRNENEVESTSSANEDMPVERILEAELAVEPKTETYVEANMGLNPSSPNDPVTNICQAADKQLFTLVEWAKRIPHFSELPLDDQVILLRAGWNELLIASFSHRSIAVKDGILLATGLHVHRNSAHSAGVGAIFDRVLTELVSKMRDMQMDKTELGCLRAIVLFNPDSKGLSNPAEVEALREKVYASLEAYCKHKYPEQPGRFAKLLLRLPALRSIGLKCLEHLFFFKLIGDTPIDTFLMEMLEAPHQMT
Assay: Z3 Assay (HEK-293 cells with CVBE and 6XEcRE LacZ, β-galactosidase reporter)
Settings: read-out: Z3 assay EC50; HEK-293 Z3 cells, β-galactosidase reporter; average of two wells
Write the quantity with the unit trailing the number.

Cc1c(C(=O)NN(C(=O)c2cc(F)c(F)c(F)c2F)C(C)(C)C)ccc2c1CCCO2 | 257 nM
Cc1cc(C)cc(C(=O)N(NC(=O)c2ccc3c(c2)OC(C)CO3)C(C)(C)C)c1 (racemic) | 1180 nM
Cc1c(C(=O)NN(C(=O)c2cccc(F)c2)C(C)(C)C)ccc2c1OCCO2 | 309 nM
CCc1ccc(C(=O)NN(C(=O)c2cc(C)cc(C)c2)C(C)(C)C)cc1CC | 3300 nM
CCc1c(OC)cccc1C(=O)NN(C(=O)c1ccc2c(c1)OCO2)C(C)(C)C | 2090 nM

Bench note, Bombyx mori EcR (VP16 fusion, CVBE switch construct) (Bombyx mori, UniProt P49881): `CCc1c(OC)cccc1C(=O)NN(C(=O)c1ccccc1[N+](=O)[O-])C(C)(C)C` , EC50 reads 186 nM

Case `Cc1ccc(F)c(C(=O)N(NC(=O)c2ccc3c(c2C)CCCO3)C(C)(C)C)c1` , Bombyx mori EcR (VP16 fusion, CVBE switch construct) (Bombyx mori, UniProt P49881), EC50 recorded as 170 nM

Entry `COCc1c(OC)cccc1C(=O)NN(C(=O)c1cc(Cl)cc(Cl)c1)C(C)(C)C` , tested on Bombyx mori EcR (VP16 fusion, CVBE switch construct) (Bombyx mori, UniProt P49881), has a reported EC50 of 3470 nM

// compound `Cc1c(C(=O)NN(C(=O)c2cc(F)c(Cl)cc2Cl)C(C)(C)C)ccc2c1CCCO2` , assay Bombyx mori EcR (VP16 fusion, CVBE switch construct) (Bombyx mori, UniProt P49881), EC50 value: 151 nM

Noted EC50 for `CCc1c(OC)cccc1C(=O)NN(C(=O)c1cc(OC)c(O)c(OC)c1)C(C)(C)C` , tested on Bombyx mori EcR (VP16 fusion, CVBE switch construct) (Bombyx mori, UniProt P49881): 3310 nM

Reported EC50 (Bombyx mori EcR (VP16 fusion, CVBE switch construct) (Bombyx mori, UniProt P49881)) for entry `Cc1cc(C)cc(C(=O)N(NC(=O)c2cccc(OC(C)C)c2C)C(C)(C)C)c1` is 468 nM

# lookup: `Cc1cc(C(=O)N(NC(=O)c2cccc(Cl)c2C)C(C)(C)C)ccc1Br` on Bombyx mori EcR (VP16 fusion, CVBE switch construct) (Bombyx mori, UniProt P49881), EC50 = 21100 nM

Considering `CCc1c(OC)cccc1C(=O)NN(C(=O)c1ccc(F)cc1)C(C)(C)C` , its EC50 with Bombyx mori EcR (VP16 fusion, CVBE switch construct) (Bombyx mori, UniProt P49881) was recorded as 912 nM

Reading of EC50 for `CCc1c(OC)cccc1C(=O)NN(C(=O)c1cccc(F)c1)C(C)(C)C` with Bombyx mori EcR (VP16 fusion, CVBE switch construct) (Bombyx mori, UniProt P49881): 617 nM

So the reported EC50 for `COc1cccc(C(=O)NN(C(=O)c2cc(C)cc(Br)c2)C(C)(C)C)c1C` , on Bombyx mori EcR (VP16 fusion, CVBE switch construct) (Bombyx mori, UniProt P49881), turned out to be 107 nM

Readout EC50 for `COc1cccc(C(=O)NN(C(=O)c2cc(C)cc(C)c2)C(C)(C)C)c1[N+](=O)[O-]` , test system Bombyx mori EcR (VP16 fusion, CVBE switch construct) (Bombyx mori, UniProt P49881), was 3310 nM

Entry `COc1cc(C(=O)N(NC(=O)c2ccc3c(c2Cl)COCO3)C(C)(C)C)cc(OC)c1C` ; assay system Bombyx mori EcR (VP16 fusion, CVBE switch construct) (Bombyx mori, UniProt P49881); EC50 recorded at 126 nM

Just for reference, patent US9102648B1 is where these values come from.
